biological target: T1, human OT7T175 (metastin receptor) (human, UniProt Q969F8 1-398); assay: competition with Cy-5 metastin (40-54) on hOT7T175-CHO cells, FMAT
T1 construct: expressed on CHO cells; also called hOT7T175; hOT7T175-expressed CHO cells
T1 sequence (Q969F8 whole entry L364H): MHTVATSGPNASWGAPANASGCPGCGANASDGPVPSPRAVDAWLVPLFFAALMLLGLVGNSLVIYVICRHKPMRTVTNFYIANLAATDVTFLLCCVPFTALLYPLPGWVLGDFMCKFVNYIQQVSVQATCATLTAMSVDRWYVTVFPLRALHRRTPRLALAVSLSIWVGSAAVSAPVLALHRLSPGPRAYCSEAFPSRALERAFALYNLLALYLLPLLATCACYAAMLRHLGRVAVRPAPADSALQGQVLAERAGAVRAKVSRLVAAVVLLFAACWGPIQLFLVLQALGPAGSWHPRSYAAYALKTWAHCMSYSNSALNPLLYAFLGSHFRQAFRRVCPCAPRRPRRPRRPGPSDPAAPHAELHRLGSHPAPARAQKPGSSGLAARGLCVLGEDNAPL
Non-standard residues stand in square brackets, D forms with d. Primed or numbered codes have the meaning given here. No end group written: not given here. Phe(4-Cl) = N[C@@H](Cc1ccc(Cl)cc1)C(=O)O; Arg(Me) = CNC(=N)NCCC[C@H](N)C(=O)O; Arg(Et)″ = ethylated arginine; azaGly = NNC(=O)O
Observation type: pIC50
Numbers only, as −log10 of the molar value.

Example entries begin here.
Binder | Observation type | Reported
[dY]N[Phe(4-Cl)]NSF[azaGly]L[Arg(Me)]F-NH2 (N-terminus assumed; SMILES CNC(=N)NCCC[C@H](NC(=O)[C@H](CC(C)C)NC(=O)NNC(=O)[C@H](Cc1ccccc1)NC(=O)[C@H](CO)NC(=O)[C@H](CC(N)=O)NC(=O)[C@H](Cc1ccc(Cl)cc1)NC(=O)[C@H](CC(N)=O)NC(=O)[C@H](N)Cc1ccc(O)cc1)C(=O)N[C@@H](Cc1ccccc1)C(N)=O, also called Compound No. 249) [[D-Tyr1,Phe(4Cl)3,AzaGly7,Arg(Me)9]MS10] | pIC50 | 6.82
[dY]NWNSFGL[Arg(Et)″]F-NH2 (also called Compound No. 192) [[D-Tyr1,Arg(Et)9]MS10] | pIC50 | 6.28

Next, consider the following binder.
According to the records, this binder [dY][dW]NSFGL[Arg(Me)]F-NH2 (also called Compound No. 224) [des(1)-[D-Tyr2,D-Trp3,Arg(Me)9]MS10] displays pIC50 of 6.85
